I'd appreciate it if you could supply inhibition values for the items below.
- EXPERIMENTAL_SYSTEM: Protein Mdm4 (Homo sapiens) + E3 ubiquitin-protein ligase Mdm2 (Homo sapiens) (UniProt O15151+Q00987)
- Sequence (O15151 whole entry, looked up): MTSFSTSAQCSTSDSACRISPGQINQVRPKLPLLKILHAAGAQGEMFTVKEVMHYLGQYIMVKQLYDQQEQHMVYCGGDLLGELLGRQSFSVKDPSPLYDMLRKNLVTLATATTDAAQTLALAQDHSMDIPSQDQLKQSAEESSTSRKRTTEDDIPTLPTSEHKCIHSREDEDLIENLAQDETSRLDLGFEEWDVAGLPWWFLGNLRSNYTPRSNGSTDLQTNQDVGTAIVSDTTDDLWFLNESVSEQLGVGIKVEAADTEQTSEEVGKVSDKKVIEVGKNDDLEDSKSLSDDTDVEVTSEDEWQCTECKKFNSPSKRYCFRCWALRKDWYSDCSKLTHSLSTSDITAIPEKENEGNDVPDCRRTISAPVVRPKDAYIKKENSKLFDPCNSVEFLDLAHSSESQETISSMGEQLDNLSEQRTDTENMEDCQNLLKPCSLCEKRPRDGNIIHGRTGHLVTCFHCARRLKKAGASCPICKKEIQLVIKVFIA
- Sequence (Q00987 whole entry, looked up): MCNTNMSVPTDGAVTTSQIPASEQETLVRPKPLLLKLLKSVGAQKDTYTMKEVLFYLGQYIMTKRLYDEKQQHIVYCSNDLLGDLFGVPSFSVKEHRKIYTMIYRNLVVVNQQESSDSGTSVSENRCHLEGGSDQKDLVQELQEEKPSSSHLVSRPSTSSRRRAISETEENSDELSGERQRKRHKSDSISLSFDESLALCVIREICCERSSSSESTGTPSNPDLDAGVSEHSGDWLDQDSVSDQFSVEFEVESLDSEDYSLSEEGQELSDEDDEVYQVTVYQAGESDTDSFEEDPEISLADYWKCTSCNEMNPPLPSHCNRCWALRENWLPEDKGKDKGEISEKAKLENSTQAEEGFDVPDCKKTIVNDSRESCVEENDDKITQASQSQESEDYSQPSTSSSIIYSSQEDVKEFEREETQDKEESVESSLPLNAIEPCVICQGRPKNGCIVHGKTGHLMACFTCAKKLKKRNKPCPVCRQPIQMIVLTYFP
- EXPERIMENT_DESCRIPTION: inhibitors of human Mdm2-MdmX association, primary screen, cell-based, luminescence, split luciferase, SaOS-2, uHTS (AID 485346)
- STATED_CONDITIONS: SaOS-2 split-luciferase Mdm2/MdmX complementation, at 8 µM, hits give high values
About 10,000 (3%) of roughly 330,000 compounds were called active. The full list was thinned out, with actives kept by preference.
Write the value in % as a bare number.

*Q* # inhibition lookup, item COc1ccc(NC(=O)N(C)C[C@H]2Oc3ccc(NC(=O)C4CC4)cc3C(=O)N([C@H](C)CO)C[C@@H]2C)cc1
*A* -5.08

*Q* Please look up its inhibition: Cc1ccc(N2C(=O)CC(Sc3ncn[nH]3)C2=O)cc1 (configuration not stated)
*A* 7.7

*Q* May I ask what inhibition has been recorded for COc1ccccc1C(=O)NC(=S)Nc1ccccc1N1CCCCC1 ?
*A* 30

*Q* Suppose we examine the molecule Cc1nc(-c2ccc(Cl)cc2)sc1C1(C)CC(c2ccc(Br)cc2)=NO1 (configuration not stated) ; what inhibition value has been reported?
*A* 4.57

*Q* Data request, read-out inhibition, for Cc1cc(C)c2c(-c3ccc(F)cc3)c(C#N)c(=O)n(C)c2n1
*A* 51.8

*Q* What value of inhibition has been reported for the following molecule? COc1cc(NS(=O)(=O)c2ccc(NC(=S)NC(=O)c3ccccc3)cc2)nc(OC)n1
*A* 13.4

*Q* // lookup inhibition for Cc1sc(NC(=O)C2=COCCO2)c(C#N)c1C
*A* -49.9

*Q* If you can, please state the reported inhibition value of COc1ccc(O)c(C(=O)c2cnc3c(c2)c(-c2ccc(F)cc2)c(C#N)c(=O)n3C)c1 .
*A* 12.9

*Q* // query inhibition value for entry O=C(c1[nH]ncc1-c1ccc(Cl)cc1)C1CO1 (configuration not stated)
*A* 78.2

*Q* Item COc1cc(Cl)c(C)cc1NC(=O)[C@@H]1CCCN1C(=O)c1cccs1 has what recorded inhibition?
*A* 6.14

*Q* Please report the recorded inhibition for CCOc1ccccc1N1CCN(C(=O)COc2ccc3c(C)cc(=O)oc3c2)CC1 .
*A* 18.6

*Q* Which value of inhibition has been reported for COc1cc(SC)ccc1C(=O)Nc1nc(C)cs1 in the records?
*A* 70.4

*Q* Given the entry O=C(NC(=S)Nc1ccccc1C(=O)O)c1ccc(-c2ccc(Br)cc2)o1 , report its measured inhibition.
*A* 44.1

*Q* Look at this molecule and give its reported inhibition. O=C1CN(c2nc(-c3ccccc3)c3cc(Br)ccc3n2)c2ccccc2N1
*A* 66.1

*Q* inhibition for O=C(OCc1cc(=O)n2ccsc2n1)C1(c2ccc(Cl)cc2)CC1 ?
*A* -13.2

*Q* Find the recorded inhibition belonging to CN(C)c1ccc(C=C2C(=O)OC3(CCCC3)OC2=O)cc1 and report it.
*A* -3.25

*Q* Fill in the blank: the reported inhibition of O=C(NC(=O)c1ccccc1N1CCCCC1)Nc1ccc(Br)cc1 is ____.
*A* 51.5

*Q* Any idea what inhibition was measured for Cn1c(N)cc(-c2ccc(F)cc2)c(C#N)c1=O ?
*A* 14

*Q* Which inhibition is reported for this molecule? Cc1ccc(NS(=O)(=O)c2ccc3c(c2)n(C)c(=O)c(=O)n3C)c(C)c1
*A* -12.6

*Q* Return reported inhibition; argument: O=C(CN1CCOCC1)Nc1cccc([N+](=O)[O-])c1
*A* 14.4

*Q* GET /values?readout=inhibition&item= CC1=C(C(N)=O)C(c2ccc(F)cc2)n2nc(CCCO)nc2N1 (configuration not stated)
*A* 1.82

*Q* // query inhibition value for entry COc1ccc(NC(=O)c2cc(-c3cc(OC)c(OC)c(OC)c3)nc3ccccc23)c(OC)c1
*A* 61.6

*Q* Form field: reported inhibition of Cc1nc2ccccc2n1CC(=O)N/N=C/c1cccnc1
*A* 25.2

*Q* Please report the recorded inhibition for COc1cc(SC)ccc1C(=O)Nc1cc(C)ccn1 .
*A* -133

*Q* For Cn1nc(-c2ccccc2)c(CO)c1Sc1ccccc1 , what is its reported inhibition?
*A* 8.85

*Q* Which inhibition is listed for C=CCNCCCCOc1ccccc1 ?
*A* -9.48

*Q* Given CC1CC(=O)Nc2ccccc2N1C(=O)COc1ccc2cc(Br)ccc2c1 (configuration not stated) , state its recorded inhibition.
*A* 20

*Q* Look up inhibition: CCCc1nc(NCc2ccc3c(c2)OCO3)c2nnn(Cc3ccccc3Cl)c2n1
*A* 75.2

*Q* Using the record for Cc1ccc(NC(=O)CSc2cccc3cccnc23)c(C)c1 , report its inhibition.
*A* 28.1

*Q* Reported inhibition, molecule Cc1ccc(S(=O)(=O)N2CC(O)C[C@H]2C(=O)OCC(=O)Nc2ccc(N3CCOCC3)cc2)cc1C (some centres not stated) : ____
*A* 31.1

*Q* What value of measured inhibition is listed for COc1ccccc1NC(=O)c1cc(Cl)nc2ccccc12 ?
*A* -6.72

*Q* What does the data say about its inhibition? Entry: Cn1cc([N+](=O)[O-])c(C(=O)Nc2cnn(Cc3ccc(F)cc3)c2)n1
*A* 61.3

*Q* Could you tell me which inhibition is on file for O=C(c1nnc(-c2ccc(Cl)cc2)o1)C1CCCC1 ?
*A* -34.3

*Q* Looking for the measured inhibition of Cc1ccccc1NC(=O)Nc1ccccc1N1CCCCC1 , can you help?
*A* 2.88

*Q* Given the entry O=C(CNc1ccccc1N1CCCC1=O)Nc1cc(Cl)ccc1-n1cncn1 , report its measured inhibition.
*A* 0.059

*Q* Recorded inhibition of C[C@@H]1CC[C@]2(O[C@@H](CCO)C[C@H](O)[C@H]2O)O1 , please.
*A* 16.3

*Q* Requested field: inhibition. Item: Cc1ccc(NC(=S)NC(NC(=O)Cc2cccc3ccccc23)C(Cl)(Cl)Cl)cc1 (configuration not stated)
*A* 79.8

Where do the numbers come from? From PubChem BioAssay AID485346.
